# Test Details: Pharmacokinetics in mouse plasma
# Type: in vivo, CD1 mice (Mus musculus)
# Test Settings: both sexes, CD1, mouse, plasma, po; mice; 550 mg/kg (p.o.)
Property Label: AUC (ng·h/mL)
One number for each entry, in ng·h/mL.

[in] Note down AUC recorded for `c1coc(CNc2ncnc3[nH]cnc23)c1`
[out] 4390

###

# Test system: SARS-CoV-2
# Test Details: Combination of RdRp inhibitors with SARS-CoV-2 nsp14 inhibitors in infected Calu-3 cells, synergy
# Type: cell-based
# Test Settings: Severe acute respiratory syndrome coronavirus 2, Calu-3, read-out: EC50 mean
pEC50: −log10 of the molar value.
Label rule, in plain words: pEC50 of 6 and up is criterion met, under 6 is criterion not met.

Answered cases to consult:
Compound	Label Class
COC(=O)N[C@H](C(=O)N1CCC[C@H]1C(=O)Nc1ccc([C@@H]2CC[C@@H](c3ccc(NC(=O)[C@@H]4CCCN4C(=O)[C@@H](NC(=O)OC)C(C)C)cc3)N2c2ccc(C(C)(C)C)cc2)cc1)C(C)C [Ombitasvir, ombitasvir]	criterion met
Cc1nnc(C(=O)NC(C)(C)c2nc(C(=O)NCc3ccc(F)cc3)c(O)c(=O)n2C)o1 [RTG, raltegravir]	criterion not met
C[C@@H]1CCO[C@H]2Cn3cc(C(=O)NCc4ccc(F)cc4F)c(=O)c(O)c3C(=O)N12 [DTG, dolutegravir]	criterion not met
NC(=O)c1nc(F)c[nH]c1=O [Favipiravir, favipiravir]	criterion not met
c1coc(CNc2ncnc3[nH]cnc23)c1 [MB-905, N6-furfurylaminopurine]	criterion met

[in] Does the reported pEC50 for CCC(CC)COC(=O)[C@H](C)N[P@](=O)(OC[C@H]1O[C@@](C#N)(c2ccc3c(N)ncnn23)[C@H](O)[C@@H]1O)Oc1ccccc1 [Remdesivir, remdesivir, reference compound] fall at or above the 6 mark?
[out] criterion met

[in] Determine whether this compound has pEC50 no lower than 6: C[C@H](Cn1cnc2c(N)ncnc21)OCP(=O)(O)O [Tenofovir, tenofovir]
[out] criterion not met
